organism: Mustela putorius furo; assay: Dose required to produce 20% increase in effective refractory period in male ferret.; assay type: functional
attribute measured: EC20 (nM)

smiles string: O=C(c1ccc([N+](=O)[O-])cc1)N1CCN(CCc2ccc([N+](=O)[O-])cc2)CC1
attribute measured: EC20
meas value: 3

smiles string: O=C(c1ccc([N+](=O)[O-])cc1)N1CCNCC1
attribute measured: EC20
meas value: 20000

smiles string: CS(=O)(=O)Nc1ccc(C(=O)N2CCN(CCc3ccccc3)CC2)cc1
attribute measured: EC20
meas value: 680

smiles string: O=[N+]([O-])c1ccc(CCN2CCN(c3ccc([N+](=O)[O-])cn3)CC2)cc1
attribute measured: EC20
meas value: 1300

smiles string: CS(=O)(=O)Nc1ccc(C(=O)N2CCN(CCc3ccc([N+](=O)[O-])cc3)CC2)cc1
attribute measured: EC20
meas value: 60

---

species: Mustela putorius furo; experiment: Dose required to produce 20% increase in effective refractory period in male ferret.; format: functional

smiles string: Cc1cccc(CCN2CCC(C(=O)c3ccc(NS(C)(=O)=O)cc3)CC2)n1
EC20: 0.02 µM

smiles string: Nc1ccc(CCN2CCN(C(=O)c3ccc([N+](=O)[O-])cc3)CC2)cc1
EC20: 1.4 µM

smiles string: O=[N+]([O-])c1ccc(CCN2CCN(c3ccccc3)CC2)cc1
EC20: 0.8 µM

---

species on record: Mustela putorius furo; experiment: Dose required to produce 20% increase in effective refractory period in male ferret.; format: functional
// EC20 lookup, one value per entry

compound: CC(C)NCC(O)c1ccc(NS(C)(=O)=O)cc1 (stereo not given) [SOTALOL]
measure unit: nM
qualifier: =
EC20: 3500
--
compound: O=[N+]([O-])c1ccc(CCN2CCN(c3ccncc3)CC2)cc1
measure unit: nM
qualifier: =
EC20: 30
--
compound: CN(CCOc1ccc(NS(C)(=O)=O)cc1)CCc1ccc(NS(C)(=O)=O)cc1 [DOFETILIDE]
measure unit: nM
qualifier: =
EC20: 15
--
compound: Nc1ccc(CCN2CCN(c3ccc(N)cc3)CC2)cc1
measure unit: nM
qualifier: >
EC20: 100000
--
compound: O=C(c1cccc([N+](=O)[O-])c1)N1CCN(CCc2ccc([N+](=O)[O-])cc2)CC1
measure unit: nM
qualifier: =
EC20: 270

---

species on record: Mustela putorius furo; experiment: Dose required to produce 20% increase in effective refractory period in male ferret.; format: functional
// reported EC20 for each item listed

smiles string: O=[N+]([O-])c1ccc(N2CCN(CCc3ccccc3)CC2)cc1
EC20 / µM: 0.5

smiles string: Nc1ccc(CCN2CCN(c3ccncc3)CC2)cc1
EC20 / µM: 15

smiles string: O=C(c1ccc([N+](=O)[O-])cc1)N1CCN(Cc2ccc([N+](=O)[O-])cc2)CC1
EC20 / µM: 3.5

smiles string: O=[N+]([O-])c1ccc(CCN2CCC(c3ccc([N+](=O)[O-])cc3)CC2)cc1
EC20 / µM: 0.3

smiles string: CS(=O)(=O)Nc1ccc(CCN2CCN(c3ccncc3)CC2)cc1
EC20 / µM: 0.22

smiles string: O=[N+]([O-])c1ccc(CCN2CCN(c3ccc([N+](=O)[O-])cc3)CC2)cc1
EC20 / µM: 0.03

smiles string: CS(=O)(=O)Nc1ccc(C(=O)N2CCN(CCOc3ccc(N(S(C)(=O)=O)S(C)(=O)=O)cc3)CC2)cc1
EC20 / µM: 25

smiles string: Nc1ccc(CCN2CCC(c3ccc(N)cc3)CC2)cc1
EC20 / µM: 2

smiles string: O=C(c1ccc([N+](=O)[O-])cc1)N1CCN(CCc2ccccc2)CC1
EC20 / µM: 0.16

smiles string: CS(=O)(=O)Nc1ccc(CCN2CCN(C(=O)c3ccc(NS(C)(=O)=O)cc3)CC2)cc1
EC20 / µM: 2
